- PROTOCOL NOTES: clinical
- CONDITION DETAILS: human, plasma, po, 60 mg, AUC0-t (zero to the last quantifiable concentration), Mean, 60 mg DS (Fasted), single oral dose, N = 6
READOUT TYPE: AUC(0-t) (ng·h/mL)

                                test_smiles  readout_type  scale_unit  observed_value
0  CN(C)C[C@H]1CN(CCc2ccsc2)CC[C@]1(O)c1cccc(C(N)=O)c1      AUC(0-t)     ng·h/mL            67.1

====

- PROTOCOL NOTES: clinical
- CONDITION DETAILS: human, plasma, po, 120 mg, AUC0-t (zero to the last quantifiable concentration), Mean, 120 mg DS (Fasted), single oral dose, N = 6
- Excerpt: The study comprised a single ascending dose (SAD), sequential cohort study, incorporating a food effect (FE) evaluation. Up to 40 subjects were to be studied in 5 cohorts (Cohorts A1 to A5), each cohort consisting of 8 subjects. […] The actual blood sampling dates and times relative to dosing time were listed by subject and nominal sampling time, with time deviation calculated, for all subjects with available plasma concentration data. […]
READOUT TYPE: AUC(0-t)

>>> df
                                test_smiles  readout_type  observed_value
0  CN(C)C[C@H]1CN(CCc2ccsc2)CC[C@]1(O)c1cccc(C(N)=O)c1      AUC(0-t)     231 ng·h/mL

====

- PROTOCOL NOTES: Phase I single ascending dose pharmacokinetics of metabolite Compound II in plasma
- Assay type: in vivo, human
- CONDITION DETAILS: human; metabolite after 400 mg DS (Fasted), single oral dose, plasma; read-out: t1/2 (terminal plasma half-life), Mean (converted)
READOUT TYPE: half-life (min)

In [3]: df
Out[3]:
                                test_smiles  scale_unit  observed_value
0  CNC[C@H]1CN(CCc2ccsc2)CC[C@]1(O)c1cccc(C(N)=O)c1         min            54.1

====

- PROTOCOL NOTES: clinical
- CONDITION DETAILS: human, plasma, po, 60 mg
READOUT TYPE: half-life

                                   compound  readout_type  observed_value
0  CN(C)C[C@H]1CN(CCc2ccsc2)CC[C@]1(O)c1cccc(C(N)=O)c1 [Compound I]     half-life          7.89 h

====

- PROTOCOL NOTES: clinical
- CONDITION DETAILS: human, plasma, po, 400 mg, AUC0-last (zero to 24 hours postdose), Mean, 400 mg DS (Fasted), single oral dose, N = 6
READOUT TYPE: AUC(0-t)

>>> df
                                   molecule  readout_type  observed_value
0  CN(C)C[C@H]1CN(CCc2ccsc2)CC[C@]1(O)c1cccc(C(N)=O)c1 [Compound I]      AUC(0-t)     698 ng·h/mL

====

- PROTOCOL NOTES: clinical
- CONDITION DETAILS: human, plasma, po, 20 mg
READOUT TYPE: AUC(0-inf)

                                test_smiles  readout_type  observed_value
0  CN(C)C[C@H]1CN(CCc2ccsc2)CC[C@]1(O)c1cccc(C(N)=O)c1    AUC(0-inf)    18.4 ng·h/mL

These measurements were taken from patent US20260224549A1.
